Details: pH 6.8
endpoint-name: aqueous solubility (µg/mL)
Report the value in µg/mL with no unit label.

compound=CN1CCc2ncnc(N3CCCN(c4nccs4)CC3)c2C1 measured_result=43.2
compound=O=C(Nc1ccccc1-c1cn2c(CN3CCNCC3)csc2n1)c1cnc2ccccc2n1 measured_result=1.49
compound=Cc1cccc(C(=O)N(C)CCc2cnccn2)c1 measured_result=30.4
compound=O=C(O)c1cc(Cl)cc2cccnc12 measured_result=26.9
compound=Cc1cccc(NC(=O)c2cccc3ncccc23)c1 measured_result=4.85
compound=C[n+]1cc2c3c(ccc2c2ccc4cc5c(cc4c21)OCO5)OCO3 measured_result=32.2

Give the measured aqueous solubility of Cn1cnnc1-c1cccc(NS(=O)(=O)c2ccc(N3CCCC3=O)cc2)c1 .
56.6

Give the measured aqueous solubility of CN(C)c1ccc(C(=O)N2CCN3C(=O)N(Cc4ccccc4)C(=O)[C@H]3C2)cc1 .
13.6

Give the measured aqueous solubility of Cc1ccsc1C(=O)Nc1nc2ccccc2s1 .
0.29

Give the measured aqueous solubility of NC(=O)c1ccc(N2CCCCC2)c(NC(=O)c2ncoc2-c2ccc3ccccc3c2)c1 .
0.24

###

Categorized via MDR1-MDCK efflux ratio: I (below 0.7), II (0.7 to below 30), III (30 or more)

molecule=CC(C)[C@H]1C(=O)N[C@H](CO)Cc2cc(NC(=O)/C=C/C=C/c3ccc(C(F)(F)F)cc3)ccc2N1C class=III
molecule=CN(C)Cc1csc(-c2nccn2-c2ccc3c(c2)n(C)c(=O)n3C)c1 class=III
molecule="CN(C)CCOc1cc(-c2cn[nH]c2)ccc1NC(=O)C1COc2ccccc2O1 (stereo unspecified)" class=III
molecule=O=C(Nc1ccccc1)Nc1ccc(OC(F)(F)F)cc1 class=I

# bin lookup: classify Clc1ccc(C2(c3ccc(-c4cn[nH]c4)cc3)CCNCC2)cc1 by its MDR1-MDCK efflux ratio
III

# bin lookup: classify Cc1ccc(C)c(C(=O)Nc2cnc3c(c2)c(C)nn3C)c1 by its MDR1-MDCK efflux ratio
I

# bin lookup: classify N#Cc1ccccc1OCc1csc(-c2ncccn2)n1 by its MDR1-MDCK efflux ratio
I

# bin lookup: classify COc1ccncc1NCc1ccc2c(c1)OCCO2 by its MDR1-MDCK efflux ratio
I

# bin lookup: classify Cc1oc2cc(OCC(=O)Nc3nccs3)ccc2c(=O)c1Oc1ccc(F)cc1 by its MDR1-MDCK efflux ratio
II

# bin lookup: classify Cc1nn(C)c2nc(N3CCN(C)C[C@@H]3c3ccccc3)sc12 by its MDR1-MDCK efflux ratio
II

# bin lookup: classify OC1(c2cccnc2F)CCN(Cc2ccc(-c3ccc(F)cc3)o2)CC1 by its MDR1-MDCK efflux ratio
I

###

Binarize MDR1-MDCK efflux ratio at 2; below is class 1, at or above is class 0.

Check out these entries, answers already filled in.
compound=COCCNc1c(C)c(C)nc2cc(-c3nccn3C)nn12 class="class 1"
compound="COc1ccc2cc(-c3[nH]c(-c4ccc(S(C)=O)cc4)nc3-c3ccncc3)ccc2c1 (stereo not given)" class="class 0"
compound=Cc1cnc(NCC2(CO)CCCC2)nc1N(C)C class="class 1"
compound=O=C(NCCc1ccc2c(c1)OCO2)C1CCCC1 class="class 1"
compound=Cc1ccccc1-n1c(CC2CCN(C(=O)C3CC3)CC2)n[nH]c1=O class="class 0"

Record O=C1CCCc2c1[nH]c1cc(-n3ccnc3-c3ccncc3)ccc21 : is its MDR1-MDCK efflux ratio strictly below 2?
class 0

Record Cc1cc(NC(=O)C2CCOCC2)sn1 : is its MDR1-MDCK efflux ratio strictly below 2?
class 1

Record O=C(Nc1nncs1)c1cccnc1 : is its MDR1-MDCK efflux ratio strictly below 2?
class 1

###

fraction unbound, human plasma for assorted molecules
// return just the number, without any unit appended

molecule=C=CC(=O)N(C)CCOc1c(N)ncnc1-c1cc(F)cc(NC(=O)c2ccc(C3CC3)cc2F)c1C measured_result=0.0689
molecule=CN1CCN(S(=O)(=O)c2ccc(-c3cnc(N)c(C(=O)Nc4cccnc4)n3)cc2)CC1 measured_result=0.12
molecule="CC1CC(N)CCN1C(=O)c1cc(N2CCNC2=O)c(F)cc1F (stereo not given)" measured_result=0.682
molecule=COc1ccc([C@H]2c3[nH]c4ccc(Cl)cc4c3CCN2C(=O)Oc2ccc(Cl)cc2)cc1 measured_result=0.326

Please look at the following molecule next.
Give the measured fraction unbound, human plasma of Cc1[nH]nc2c1C1(CCCCC1)CC(=O)N2 .
0.21

###

MDR1-MDCK efflux ratio for assorted compounds

Here is how some compounds turned out for MDR1-MDCK efflux ratio.
smiles_input=C1CN(c2nc3c(c(N4CCSCC4)n2)SCC3)CCS1 measured_result=0.383
smiles_input=CCC(C)(C)NC(=O)C1(Cc2ccc(-c3cc(F)ccc3OC)cc2)CCOCC1 measured_result=1.62
smiles_input=Cc1ccc(S(=O)(=O)N2CCC[C@H](C(=O)NC3CCOCC3)C2)cc1 measured_result=20.9
smiles_input=Cc1nc2ncccn2c1C(=O)N(CC#Cc1ccccc1)C1CCCC1 measured_result=1.94
smiles_input=Cn1ncnc1COc1nn2c(-c3c(F)cccc3F)nnc2cc1C1CCC1 measured_result=73.4

Please look at the following compound next.
Give the measured MDR1-MDCK efflux ratio of COc1ccc(-c2nc(NC(C)C)ncc2-c2ncc[nH]2)cc1 .
6.39

###

Conditions: pH 6.8
log10 of aqueous solubility for assorted molecules
Use the decimal logarithm of aqueous solubility (µg/mL).

smiles_input=Cc1c[nH]c(=O)n1-c1ccc(C(=O)Nc2ccc3ccccc3n2)cc1 measured_result=0.77
smiles_input=COCC(=O)Nc1cccc(-n2cccc2)c1 measured_result=1.71
smiles_input=CN1CCN(C2=c3ccccc3=Nc3ccc(Cl)cc3N2)CC1 measured_result=1.76
smiles_input=Cc1cn(CCN2CCN(c3ccccc3-c3cc(C#N)cc(C(=O)NCCCN4CCCC4)c3)CC2)c2ccccc12 measured_result=1.50
smiles_input=NCC(=O)Nc1ccc(-n2nc(C(F)(F)F)cc2-c2ccc3c(ccc4ccccc43)c2)cc1 measured_result=-0.60

Give the measured log10 of aqueous solubility of Cc1nc(CNC2CCN(C(=O)C3CC3)CC2)cs1 .
1.63

Give the measured log10 of aqueous solubility of Cc1ccc2c(CC(=O)N(C)CC(N)=O)coc2c1C .
1.54

Give the measured log10 of aqueous solubility of Cc1cc(C)cc(C(=O)Nc2c(C#N)cnn2C)c1 .
1.58

###

Conditions: pH 6.8
log10 of aqueous solubility for assorted compounds
Use the decimal logarithm of aqueous solubility (µg/mL).

Here is how some compounds turned out for log10 of aqueous solubility.
smiles_input=CC(C)(C)Cc1nnc(-c2cnc3onc(C4CCCC4)c3c2)o1 endpoint_name="log10 of aqueous solubility" measured_result=0.60
smiles_input=CC(C)(C)c1ccc(=O)n(CC2CN(CC3(O)CCCC3)C2)n1 endpoint_name="log10 of aqueous solubility" measured_result=1.66

Give the measured log10 of aqueous solubility of CC(C)c1noc2nc(C3CC3)cc(C(=O)N3CCN(C)C(=O)C3)c12 .
1.56

Give the measured log10 of aqueous solubility of Cc1ccc(C(=O)Nc2ncccc2C)s1 .
1.58

Give the measured log10 of aqueous solubility of O=C(CSc1nccn1C1CC1)Nc1c(Cl)cc(Cl)cc1C(=O)O .
0.39

Give the measured log10 of aqueous solubility of Cc1ccc2cccc(OCC(=O)N(C)c3ccccc3)c2n1 .
1.74

Give the measured log10 of aqueous solubility of c1ccc2c(c1)CN(c1cnc3ccccc3n1)CCN2 .
1.40

Give the measured log10 of aqueous solubility of CN1CCC(n2ncc3[nH]c(-c4ccc5ccccc5c4)nc32)CC1 .
1.62

Give the measured log10 of aqueous solubility of Cn1ccc(NC(=O)c2cc(-c3ccncc3)nc3ccccc23)n1 .
1.50

Give the measured log10 of aqueous solubility of N#Cc1cccc(-c2ccc3[nH]ccc3c2)n1 .
0.56

Give the measured log10 of aqueous solubility of COc1cc(OC)c(OC)cc1CNc1ccc(N2CCOCC2)c(C(=O)O)c1 .
1.47

###

endpoint-name: MDR1-MDCK efflux ratio
// return just the number, without any unit appended

Here is how some molecules turned out for MDR1-MDCK efflux ratio.
molecule=O=C(c1noc2c1CCCC2)N1CCN(c2ncccn2)CC1 endpoint_name="MDR1-MDCK efflux ratio" measured_result=0.624
molecule=Cc1nn(C)c2sc(C(=O)N3CCC(C(=O)O)(c4ccccc4)CC3)cc12 endpoint_name="MDR1-MDCK efflux ratio" measured_result=8.54
molecule=Cn1ncnc1NCc1cc(F)cc(F)c1 endpoint_name="MDR1-MDCK efflux ratio" measured_result=0.757
molecule=OCCn1cc(-c2ccc3c(c2)CC/C3=N\O)c(-c2ccncc2)n1 endpoint_name="MDR1-MDCK efflux ratio" measured_result=36.4

Give the measured MDR1-MDCK efflux ratio of C=CCN(Cc1cccnc1)c1nc(C)nc2sccc12 .
0.798

Give the measured MDR1-MDCK efflux ratio of CCNC(=O)C1CN(c2cccc(C#N)n2)C1 .
2.07

Give the measured MDR1-MDCK efflux ratio of CCC(=O)NCC[C@@H]1CCc2ccc3c(c21)CCO3 .
0.867

Give the measured MDR1-MDCK efflux ratio of CC(=O)Nc1ccc(C(=O)N2CCCCC2c2nc(N)ncc2-c2cccc(Cl)c2)cc1 (stereo unspecified) .
98

Give the measured MDR1-MDCK efflux ratio of FC(F)(F)c1nc(Nc2ccc(-n3cnnn3)cc2)c2ccccc2n1 .
1.13

Give the measured MDR1-MDCK efflux ratio of Cn1cc(CNc2ncccn2)c(C(C)(C)C)n1 .
0.905

Give the measured MDR1-MDCK efflux ratio of CC(C)(C)C(=O)N1CCC(Cc2ccc(-c3cccs3)cc2)(C(=O)N2CCCC2)CC1 .
0.998
